Provenance of the data: ChEMBL document CHEMBL1139194

# experiment notes: Cytotoxicity against multi drug-resistant human KBVIN cells by sulforhodamine B assay
# Type: functional
# test settings: read-out: ED50 (the source's name)
// boundary case: EC50 equal to 6000 nM maps to Not met; strictly smaller maps to Met

For orientation, consider the following solved cases.
{"columns": ["compound", "group label"],
 "data": [
  ["COc1cc([C@@H]2c3cc4c(cc3[C@@H](N)[C@H]3COC(=O)[C@H]23)OCO4)cc(OC)c1O", "Met"],
  ["CC[C@@]1(O)C(=O)OCn2c1cc1c(c2=O)Cc2c-1nc1ccccc1c2/C=N/CCCC(=O)O[C@@H](C(=O)O[C@H]1C[C@@]2(O)[C@@H](OC(=O)c3ccccc3)[C@@H]3[C@]4(OC(C)=O)CO[C@@H]4C[C@H](O)[C@@]3(C)C(=O)[C@H](OC(C)=O)C(=C1C)C2(C)C)[C@@H](NC(=O)c1ccccc1)c1ccccc1", "Met"],
  ["COc1ccc2c(c1)[C@@H](/N=C/c1ccc(C(=O)O[C@H]3C[C@H]4OC[C@@]4(OC(C)=O)[C@H]4[C@H](OC(=O)c5ccccc5)[C@]5(O)C[C@H](OC(=O)[C@H](O)[C@@H](NC(=O)c6ccccc6)c6ccccc6)C(C)=C([C@@H](OC(C)=O)C(=O)[C@]34C)C5(C)C)cc1)CCc1cc(OC)c(OC)c(OC)c1-2", "Met"],
  ["COc1cc([C@@H]2c3cc4c(cc3[C@@H](Nc3ccc(C(=O)NCCCC(=O)O[C@@H](C(=O)O[C@H]5C[C@@]6(O)[C@@H](OC(=O)c7ccccc7)[C@@H]7[C@]8(OC(C)=O)CO[C@@H]8C[C@H](O)[C@@]7(C)C(=O)[C@H](OC(C)=O)C(=C5C)C6(C)C)[C@@H](NC(=O)c5ccccc5)c5ccccc5)cc3)[C@H]3COC(=O)[C@H]23)OCO4)cc(OC)c1O", "Not met"],
  ["COc1cc([C@@H]2c3cc4c(cc3[C@@H](O[C@H]3O[C@H]5CO[C@H](C)O[C@@H]5[C@@H](O)[C@@H]3O)[C@H]3COC(=O)[C@H]23)OCO4)cc(OC)c1O", "Not met"],
  ["COc1ccc2c(c1)[C@@H](/N=C/c1ccc(C(=O)O[C@@H](C(=O)O[C@H]3C[C@@]4(O)[C@@H](OC(=O)c5ccccc5)[C@@H]5[C@]6(OC(C)=O)CO[C@@H]6C[C@H](O)[C@@]5(C)C(=O)[C@H](OC(C)=O)C(=C3C)C4(C)C)[C@@H](NC(=O)c3ccccc3)c3ccccc3)cc1)CCc1cc(OC)c(OC)c(OC)c1-2", "Met"]
]}

Decide: EC50 of CC[C@@]1(O)C(=O)OCc2c1cc1n(c2=O)Cc2cc3ccccc3nc2-1 [CAMPTOTHECIN] strictly below 6000 nM? Met

Decide: EC50 of COc1cc2c(c(OC)c1O)-c1ccc(OC)c(=O)cc1[C@@H](NC(C)=O)CC2 [2-DESMETHYLCOLCHICIN] strictly below 6000 nM? Not met

###

# experiment notes: Cytotoxicity against multi drug-resistant human KBVIN cells by sulforhodamine B assay
# Format: functional
# test settings: read-out: ED50 (the source's name)
recorded metric: pEC50
Please keep in mind that pEC50 is minus log10 of the molar concentration; only the number is needed.

Reported pEC50 for CC[C@@]1(O)C(=O)OCn2c1cc1c(c2=O)Cc2c-1nc1ccccc1c2C=O : what is it? 7.60
